# credit: patent US20040142972A1

Parameter Ki: see the listing below.
# Target Or System: cloned muscarinic - M1 binding site (Homo sapiens)
# Construct: expressed in transfected cells; host or cells: CHO cells
# Sequence (P11229 whole entry): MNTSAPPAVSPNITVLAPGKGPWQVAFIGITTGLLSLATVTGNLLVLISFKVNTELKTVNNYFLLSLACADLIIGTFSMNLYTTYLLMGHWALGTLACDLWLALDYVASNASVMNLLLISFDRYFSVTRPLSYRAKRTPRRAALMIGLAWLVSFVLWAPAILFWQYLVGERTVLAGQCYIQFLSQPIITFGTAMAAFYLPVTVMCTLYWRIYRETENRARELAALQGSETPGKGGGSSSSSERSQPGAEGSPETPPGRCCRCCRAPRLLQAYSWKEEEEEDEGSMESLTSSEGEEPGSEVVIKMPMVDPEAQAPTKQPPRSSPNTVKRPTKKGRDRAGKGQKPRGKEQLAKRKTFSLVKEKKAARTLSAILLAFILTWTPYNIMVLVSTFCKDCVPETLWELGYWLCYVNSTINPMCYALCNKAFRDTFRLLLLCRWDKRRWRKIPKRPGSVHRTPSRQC
# Protocol Summary: Muscarinic M1 binding assay, [3H]-Scopolamine N-Methyl Chloride, human recombinant expressed in CHO cells
# Condition Info: Table 6; human recombinant; read-out: Receptor Binding Data (Ki nM) M1

// solved cases for Ki follow
[
  {
    "Molecule": "CC(C)OC(=O)CN1CCC(=C2c3ccccc3COc3ccccc32)CC1 [dox7d-oxalate]",
    "Ki": "> 10000 nM"
  },
  {
    "Molecule": "O=C(O)CCCN1CCC(=C2c3ccccc3COc3ccccc32)CC1 [Compound 73a]",
    "Ki": "> 10000 nM"
  }
]

Please look at the following molecule next.
**Q:** Kindly state the measured Ki obtained for CC(C)(CCN1CCC(=C2c3ccccc3COc3ccccc32)CC1)C(=O)O [Compound 75a] with cloned muscarinic - M1 binding site (Homo sapiens).
**A:** > 10000 nM
